# ASSAYED SYSTEM: GSK3β (Homo sapiens, UniProt P49841)
# Construct: purchased Upstate Discovery
# Sequence (P49841 whole entry, species assumed): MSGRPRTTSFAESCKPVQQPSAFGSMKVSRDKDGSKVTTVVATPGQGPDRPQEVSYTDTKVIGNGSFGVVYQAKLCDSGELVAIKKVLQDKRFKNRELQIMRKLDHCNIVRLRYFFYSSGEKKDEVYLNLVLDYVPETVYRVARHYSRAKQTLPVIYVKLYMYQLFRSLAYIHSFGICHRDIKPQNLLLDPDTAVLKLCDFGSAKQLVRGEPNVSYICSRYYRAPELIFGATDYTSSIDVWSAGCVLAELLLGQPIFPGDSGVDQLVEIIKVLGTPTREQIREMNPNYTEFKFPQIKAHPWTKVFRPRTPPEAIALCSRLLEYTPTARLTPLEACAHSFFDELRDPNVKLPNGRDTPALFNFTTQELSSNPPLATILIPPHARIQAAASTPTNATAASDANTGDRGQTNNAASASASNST
# PROTOCOL: Glycogen Synthase Kinase 3β inhibition assay, radioactivity-based
# Format: biochemical
# STUDY CONDITIONS: 10 μM compound; NA = not active
Classify by inhibition at 10 µM. Ranges: 1: < 30%; 2: ≥ 30% and < 60%; 3: ≥ 60%

                                   molecule  assigned_category
0  O=C1NC(=O)c2c1c1c3ccccc3[nH]c1c1c2c2ccccc2n1C1C=C[C@@H](O)C1 (mixture of isomers)                  3
1  O=C1NC(=O)c2c1c1c3ccccc3[nH]c1c1c2c2ccccc2n1C1CC[C@H](O)[C@@H](O)[C@H]1O (mixture of isomers)                  3
2  O=C1NC(=O)c2c1c1c3ccccc3[nH]c1c1c2c2ccccc2n1C1C=C[C@H](Nc2ccccc2)CC1 (mixture of isomers)                  2
3  CN1C(=O)c2c(c3c4ccccc4n(C4C[C@H](O)[C@@H](O)[C@H]4O)c3c3[nH]c4ccccc4c23)C1=O (mixture of isomers)                  1

Next:
Query: Into which category would you place O=C1NC(=O)c2c1c1c3ccccc3[nH]c1c1c2c2ccccc2n1C1C=C[C@H](Cl)CC1 (mixture of isomers) ?
Response: 2
